Test system: KRAS patient-derived spheroids with HUVEC/MSC, viability
Experimental protocol: Anticancer human tumor 323965-272-R-J2-PDC patient-derived pancreatic carcinoma cell line growth inhibition [KRAS2]
Run conditions: second compound 0.316 µM; first compound 1 µM; stronger effect = lower value
Result type: viability, T/C (%)

{"Compound": "COc1cc(Nc2ncc3c(n2)-c2ccc(Cl)cc2C(c2c(F)cccc2OC)=NC3)ccc1C(=O)O + COc1cc2nc(C)nc(NC(C)c3cc(N)cc(C(F)(F)F)c3)c2cc1OC1CCOC1", "Recorded value": 37.5}
{"Compound": "CC1COCCN1c1cc(-c2ccnn2C)c2ccnc(-c3ccn[nH]3)c2n1 (centres undefined) + C=CC(=O)N1CCN(c2nc(OCC3CCCN3C)nc3c2CCN(c2cccc4cccc(C)c24)C3)CC1CC#N", "Recorded value": 11.2}
{"Compound": "CC(=O)OC12COC1CC(O)C1(C)C(=O)C(O)C3=C(C)C(OC(=O)C(O)C(NC(=O)OC(C)(C)C)c4ccccc4)CC(O)(C(OC(=O)c4ccccc4)C21)C3(C)C (centres undefined) + C=CC(=O)N1CCN(c2nc(=O)n(-c3c(C)ccnc3C(C)C)c3nc(-c4c(O)cccc4F)c(F)cc23)C(C)C1", "Recorded value": 20.9}
{"Compound": "CC1(C)CCC(CN2CCN(c3ccc(C(=O)NS(=O)(=O)c4ccc(NCC5CCOCC5)c([N+](=O)[O-])c4)c(Oc4cnc5[nH]ccc5c4)c3)CC2)=C(c2ccc(Cl)cc2)C1 + C=CC(=O)N1CCN(c2nc(OCC3CCCN3C)nc3c2CCN(c2cccc4cccc(C)c24)C3)CC1CC#N", "Recorded value": 54.9}

----------
System: KRAS patient-derived spheroids with HUVEC/MSC, viability
Experimental protocol: Anticancer human tumor 323965-272-R-J2-PDC cell line growth inhibition [KRAS2];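 also: spheroids exposed to agents for 7 days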
Run conditions: curve of first compound; second compound 1 µM
pIC50: −log10 of the molar value.

{"Compound": "CC1OCC2(CCN(c3cnc(Sc4ccnc(N)c4Cl)c(N)n3)CC2)C1N (stereo not given) + CNCc1ccccc1-c1csc(C(C)Nc2nc(C)nc3cc(OC)c(OC)cc23)c1", "Censoring qualifier": "=", "pIC50": 6.26}
{"Compound": "CN(C)C/C=C/C(=O)Nc1cc2c(Nc3ccc(F)c(Cl)c3)ncnc2cc1O[C@H]1CCOC1 + CC1OCC2(CCN(c3cnc(Sc4ccnc(N)c4Cl)c(N)n3)CC2)C1N", "Censoring qualifier": "<", "pIC50": 7.00}
{"Compound": "COc1cc2nccc(Oc3ccc(NC(=O)C4(C(=O)Nc5ccc(F)cc5)CC4)cc3)c2cc1OC + C=CC(=O)N1CCN(c2nc(=O)n(-c3c(C)ccnc3C(C)C)c3nc(-c4c(O)cccc4F)c(F)cc23)C(C)C1", "Censoring qualifier": "<", "pIC50": 5.00}
{"Compound": "Cn1nccc1Nc1nccc(-c2cc3c(s2)C(C)(C)N(CCN2CCOCC2)C3=O)n1 + CNCc1ccccc1-c1csc(C(C)Nc2nc(C)nc3cc(OC)c(OC)cc23)c1", "Censoring qualifier": "=", "pIC50": 5.40}
{"Compound": "CC1(C)CCC(CN2CCN(c3ccc(C(=O)NS(=O)(=O)c4ccc(NCC5CCOCC5)c([N+](=O)[O-])c4)c(Oc4cnc5[nH]ccc5c4)c3)CC2)=C(c2ccc(Cl)cc2)C1 + C=CC(=O)N1CCN(c2nc(OCC3CCCN3C)nc3c2CCN(c2cccc4cccc(C)c24)C3)CC1CC#N", "Censoring qualifier": "=", "pIC50": 5.99}

Cited source for all entries: PubChem BioAssay AID1963869
